Below is a list of entries, each paired with its recorded IC50 value.
Tested on: RPMI 8226 cells
Assay: MTT assay cytotoxicity RPMI 8226
Conditions: read-out: Cytotoxicity RPMI 8226 IC50; Table 4; MTT, 48 h

compound	unit_abbreviation	IC50
C=CCOC(=O)[C@@H](NC(=O)[C@@H](NC(=O)[C@@H]1OC(=O)[C@H]1[C@@H](C)CC)C(C)C)C(C)C [Compound 11a]	µM	0.094
CC[C@H](C)[C@@H]1C(=O)O[C@H]1C(=O)N[C@H](C(=O)N[C@H](C(=O)OCc1ccc(OC)cc1)C(C)C)C(C)C [Compound 11f]	µM	0.117

* * *

IC50, MCF7 cells: measured values

molecule	system	unit_abbreviation	IC50
CC[C@H](C)[C@@H]1C(=O)O[C@H]1C(=O)N[C@H](C(=O)N[C@@H](CC(C)C)C(=O)OCc1ccccc1)C(C)C [Compound 10i]	MCF7 cells	nM	351
CC[C@H](C)[C@@H]1C(=O)O[C@H]1C(=O)N[C@H](C(=O)N[C@H](C(=O)OCC(C)C)C(C)C)C(C)C [Compound 11d]	MCF7 cells	nM	634
CC[C@H](C)[C@@H]1C(=O)O[C@H]1C(=O)N[C@@H](CC(C)C)C(=O)N[C@H](C(=O)OCc1ccccc1)C(C)C [Compound 10h]	MCF7 cells	nM	2350
C=CCCOC(=O)[C@@H](NC(=O)[C@@H](NC(=O)[C@@H]1OC(=O)[C@H]1[C@@H](C)CC)C(C)C)C(C)C [Compound 11g]	MCF7 cells	nM	752
CC[C@H](C)[C@@H]1C(=O)O[C@H]1C(=O)N[C@H](C(=O)N[C@H](C(=O)OCc1ccccc1)C(C)C)C(C)(C)C [Compound 10e]	MCF7 cells	nM	2140
CC[C@H](C)[C@@H]1C(=O)O[C@H]1C(=O)N[C@H](C(=O)N[C@H](C(=O)OCc1ccc(Cl)cc1)C(C)C)C(C)C [Compound 11b]	MCF7 cells	nM	954
CC[C@H](C)[C@@H]1C(=O)O[C@H]1C(=O)N[C@H](C(=O)N[C@H](C(=O)OCC1CCCCC1)C(C)C)C(C)C [Compound 11c]	MCF7 cells	nM	4570

* * *

System: MDA-MB-231 cells
Assay: MTT assay cytotoxicity MDA-MB-231
Conditions: Homo sapiens, MDA-MB-231, 48 h, read-out: Cytotoxicity MDA-MB-231 IC50
Under this convention, Met denotes IC50 strictly below 400 nM and Not met denotes IC50 at or above 400 nM.

compound	system	classification
CC[C@H](C)[C@@H]1C(=O)O[C@H]1C(=O)N[C@H](C(=O)N[C@H](C(=O)OCc1ccccc1)C(C)(C)C)C(C)C [Compound 10f]	MDA-MB-231 cells	Not met
CC(C)[C@H](NC(=O)[C@@H]1OC(=O)[C@H]1C(C)C)C(=O)N[C@H](C(=O)OCc1ccccc1)C(C)C	MDA-MB-231 cells	Not met
CC(C)C[C@H](NC(=O)[C@H](CCc1ccccc1)NC(=O)CN1CCOCC1)C(=O)N[C@@H](Cc1ccccc1)C(=O)N[C@@H](CC(C)C)C(=O)[C@@]1(C)CO1 [Carfilzomib, reference compound]	MDA-MB-231 cells	Met
CC[C@H](C)[C@@H]1C(=O)O[C@H]1C(=O)N[C@H](C(=O)N[C@H](C(=O)OC)C(C)C)C(C)C [Compound 11h]	MDA-MB-231 cells	Met
CC[C@H](C)[C@@H]1C(=O)O[C@H]1C(=O)N[C@H](C(=O)N[C@H](C(=O)OCc1ccccc1)C(C)C)C(C)C	MDA-MB-231 cells	Met
CC(C)[C@H](NC(=O)[C@@H]1OC(=O)[C@H]1C1CCCC1)C(=O)N[C@H](C(=O)OCc1ccccc1)C(C)C	MDA-MB-231 cells	Not met

* * *

Molecular target: yeast proteasome yβ1 subunit (Saccharomyces cerevisiae, UniProt P25043+P38624)
Construct: measured using 8 μg/mL of purified yCP or iCP
Assay: Subunit selectivity, purified yeast proteasome yβ1
Assay type: biochemical
Conditions: 8 μg/mL purified yCP; ± SD; read-out: yβ1 IC50

compound	IC50 (µM)
CC(C)C1C(=O)OC1C(=O)N[C@H](C(=O)N[C@H](C(=O)O)C(C)C)C(C)C (stereo partly shown) [CysB, Cystargolide B, reference compound]	10.2
CC[C@H](C)[C@@H]1C(=O)O[C@H]1C(=O)N[C@H](C(=O)N[C@@H](COCc1ccccc1)C(=O)NCc1ccccc1)C(C)C [Compound 12a]	20.4
CC(C)[C@H](NC(=O)[C@@H]1OC(=O)[C@H]1C(C)C)C(=O)N[C@H](C(=O)OCc1ccccc1)C(C)C	4.18
C=CCOC(=O)[C@@H](NC(=O)[C@@H](NC(=O)[C@@H]1OC(=O)[C@H]1[C@@H](C)CC)C(C)C)C(C)C [Compound 11a]	0.779

* * *

Target: chymotrypsin-like activity of the 26S proteasome (Homo sapiens, UniProt P28074)
Construct: endogenous in cells; host or cells: Jurkat (ATCC TIB-152, E6-1 clone) cell lysate
Sequence (P28074 60-263): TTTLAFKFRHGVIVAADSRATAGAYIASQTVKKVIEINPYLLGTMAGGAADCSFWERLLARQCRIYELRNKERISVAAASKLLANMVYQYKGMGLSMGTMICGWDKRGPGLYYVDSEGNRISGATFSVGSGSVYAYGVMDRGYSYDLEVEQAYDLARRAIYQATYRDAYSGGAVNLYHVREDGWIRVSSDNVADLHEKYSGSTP
Assay: Proteasome assay, chymotrypsin-like (ChT-L) activity, Suc-LLVY-AMC, Jurkat cell lysate
Type: biochemical

compound	IC50 (nM)
CC[C@H](C)[C@@H]1C(=O)O[C@H]1C(=O)N[C@H](C(=O)N[C@H](C(=O)OCc1ccccc1)C(C)C)C(C)C [Compound 8]	7.1

* * *

This section presents compounds with their documented IC50 values.
Test system: MDA-MB-231 cells
Test: MTT assay cytotoxicity MDA-MB-231
Settings: Homo sapiens, MDA-MB-231, 48 h, read-out: Cytotoxicity MDA-MB-231 IC50

compound	IC50 [nM]
CC[C@H](C)[C@@H]1C(=O)O[C@H]1C(=O)N[C@H](C(=O)N[C@@H](COCc1ccccc1)C(=O)OCc1ccccc1)C(C)C [Compound 10k]	90
CC[C@H](C)[C@@H]1C(=O)O[C@H]1C(=O)N[C@H](C(=O)N[C@H](C(=O)NCc1ccccc1)C(C)C)C(C)C [Compound 11e]	742

* * *

Target: yeast proteasome yβ5 subunit (Saccharomyces cerevisiae, UniProt P23724+P30656)
Construct: measured using 8 μg/mL of purified yCP or iCP
Experiment: Subunit selectivity, purified yeast proteasome yβ5
Assay type: biochemical
pIC50: −log10 of the molar value.
Reported values of pIC50 for individual entries

molecule	pIC50
CC[C@H](C)[C@@H]1C(=O)O[C@H]1C(=O)N[C@H](C(=O)N[C@H](C(=O)NCc1ccccc1)C(C)C)C(C)C [Compound 11e]	8.27
CC[C@H](C)[C@@H]1C(=O)O[C@H]1C(=O)N[C@H](C(=O)N[C@@H](COCc1ccccc1)C(=O)OCc1ccccc1)C(C)C [Compound 10k]	7.61

* * *

compounds and their reported pIC50
System: RPMI 8226 cells
Assay: MTT assay cytotoxicity RPMI 8226
Settings: read-out: Cytotoxicity RPMI 8226 IC50; Table 3; MTT, 48 h
pIC50: −log10 of the molar value.

compound	pIC50
CC[C@H](C)[C@@H]1C(=O)O[C@H]1C(=O)N[C@@H](Cc1ccccc1)C(=O)N[C@@H](Cc1ccccc1)C(=O)OCc1ccccc1 [Compound 10d]	5.89
CC[C@H](C)[C@@H]1C(=O)O[C@H]1C(=O)N[C@@H](Cc1ccccc1)C(=O)N[C@H](C(=O)OCc1ccccc1)C(C)C [Compound 10b]	5.63
CC[C@H](C)[C@@H]1C(=O)O[C@H]1C(=O)N[C@H](C(=O)N[C@@H](Cc1ccccc1)C(=O)OCc1ccccc1)C(C)C [Compound 10c]	5.99
CC[C@H](C)[C@@H]1C(=O)O[C@H]1C(=O)N[C@@H](COCc1ccccc1)C(=O)N[C@H](C(=O)OCc1ccccc1)C(C)C [Compound 10j]	5.85

* * *

Target: trypsin-like activity of the 26S proteasome (Homo sapiens)
Construct: endogenous in cells; host or cells: Jurkat (ATCC TIB-152, E6-1 clone) cell lysate
Sequence (Q99436 44-277): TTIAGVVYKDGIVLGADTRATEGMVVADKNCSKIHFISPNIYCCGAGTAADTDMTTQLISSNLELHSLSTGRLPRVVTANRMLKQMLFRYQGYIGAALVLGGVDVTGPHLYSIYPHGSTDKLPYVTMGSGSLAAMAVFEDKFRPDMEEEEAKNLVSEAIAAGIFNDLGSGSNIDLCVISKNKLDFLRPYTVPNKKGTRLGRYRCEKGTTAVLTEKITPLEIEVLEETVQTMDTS
Assay: Proteasome assay, trypsin-like (T-L) activity, SUC-RLR-AMC, Jurkat cell lysate
Assay type: biochemical
Conditions: Table 2, P1 analogues; ± S.D.; read-out: Proteasome Inhibition T-L-like IC50
Please assign no whenever IC50 is at or above 4 µM, and yes whenever it is below.

compound	classification
CC(C)C[C@@H]1C(=O)O[C@H]1C(=O)N[C@H](C(=O)N[C@H](C(=O)OCc1ccccc1)C(C)C)C(C)C [Compound 9d]	no
CC(C)[C@H](NC(=O)[C@@H]1OC(=O)[C@H]1C1CC1)C(=O)N[C@H](C(=O)OCc1ccccc1)C(C)C [Compound 9a]	yes
CC[C@H](C)[C@@H]1C(=O)O[C@H]1C(=O)N[C@H](C(=O)N[C@H](C(=O)OCc1ccccc1)C(C)C)C(C)C [Compound 8]	yes
CC(C)[C@H](NC(=O)[C@@H]1OC(=O)[C@H]1C1CCC1)C(=O)N[C@H](C(=O)OCc1ccccc1)C(C)C [Compound 9b]	yes
CC(C)[C@H](NC(=O)[C@@H]1OC(=O)[C@H]1C1CCCC1)C(=O)N[C@H](C(=O)OCc1ccccc1)C(C)C [Compound 9c]	no
CC(C)[C@H](NC(=O)[C@@H]1OC(=O)[C@H]1C(C)C)C(=O)N[C@H](C(=O)OCc1ccccc1)C(C)C [Compound 1]	yes
